Taken from patent US20250320213A1.

target: STAT6 (Homo sapiens, UniProt P42226); construct: stably transfected HaCaT keratinocyte cell line, which expresses NanoLuc luciferase reporter gene under the transcriptional control of the STAT6 responsive promoter; endogenous in cells; host or cells: HaCaT keratinocyte reporter cell line (stably transfected with a NanoLuc reporter); experiment: STAT6 Reporter Luciferase Assay (IL-13 stimulated HaCaT keratinocyte NanoLuc reporter cells); type: cell-based; details: IL-13 stimulated HaCaT STAT6 NanoLuc reporter cells; read-out: Reporter EC50
pEC50: −log10 of the molar value.
Attribute Measured: pEC50

| Molecule | pEC50 |
| --- | --- |
| CCn1nc(C(=O)NCc2ccc(NC(=O)N(C)C)nc2)c2c1[C@@H](C)CN(c1ncc(C(=O)N(C)C)cn1)C2 | 8.30 |
| CCC1CN(c2ccc(C(=O)N(C)C)cn2)Cc2c(C(=O)NCc3ccc(NC(=O)N(C)C)cc3)nn(CC)c21 (single isomer, unassigned) [Example 312] | 8.00 |
| CCn1nc(C(=O)NCc2ccc(NC(=O)NC)cc2)c2c1[C@@H](C)CN(c1ccc(N3CCCC3=O)cn1)C2 | 9.00 |
| CCn1nc(C(=O)NCc2ccc(NC(=O)N(C)C)cc2)c2c1C(C(F)(F)F)CN(c1ccc(C(=O)N(C)C)cn1)C2 (single isomer, unassigned) [Example 303] | 7.66 |
| CC(C)n1nc(C(=O)NCc2ccc(NC(=O)N(C)C)cc2)c2c1[C@@H](C)CN(c1ncc(-c3nccn3C)cn1)C2 | 6.56 |

P: CC(C)n1nc(C(=O)NCc2ccc(NC(=O)N3CCN(C)[C@H](C)C3)cc2)c2c1[C@@H](C)CN(c1ccc(C(=O)N(C)C)cc1)C2
Q: CC(C)n1nc(C(=O)NCc2ccc(NC(=O)N(C)C)cc2)c2c1CCN(c1ncc(C(=O)N(C)C)cn1)[C@@H]2C (single isomer, unassigned)
### Prompt Min pEC50? P | Q Lab note: record the label of whichever item you select.
### Response Q
(Q: 8.15, P: 9.00)

A: COCC1(N)CCN(C(=O)Nc2ccc(CNC(=O)c3nn(C(C)C)c4c3CN(c3ccc(C(=O)N(C)C)cc3)C[C@@H]4C)cc2F)CC1
B: CC(C)n1nc(C(=O)NCc2ccc(NC(=O)N3CC(N)C3)cc2)c2c1[C@@H](C)CN(c1ccc(C(=O)N(C)C)cc1)C2
C: CC(C)n1nc(C(=O)NCc2ccc(NC(=O)N(C)C)cc2)c2c1CCN(c1ccc(C(=O)N3CC(=O)NCC3(C)C)cn1)C2
D: CC(C)n1nc(C(=O)NCc2ccc(NC(=O)N(C)C)cc2)c2c1CCN(c1ccc(C(=O)N3CCC4(CCC(=O)N4)CC3)cn1)C2
E: CC(C)n1nc(C(=O)NCc2ccc(NC(=O)N(C)C)cc2)c2c1CCN(c1ccc(C(=O)N3CCc4ncncc4C3)cn1)C2
### Prompt Provide the items ranked by increasing pEC50. # list labels per requested ordering
### Response D, C, E, B, A
(D: 5.98, C: 6.58, E: 7.15, B: 8.15, A: 9.00)

P: CC(C)n1nc(C(=O)NCc2ccc(NC(=O)N3CC4(CN(C)C4)C3)cc2)c2c1[C@@H](C)CN(c1ccc(C(=O)N(C)C)cc1)C2
Q: CC(n1nc(C(=O)NCc2ccc(NC(=O)N(C)C)cc2)c2c1[C@@H](C)CN(c1ccc(C(=O)N(C)C)cn1)C2)C(F)(F)F (mixture of isomers)
R: CCn1nc(C(=O)NCc2ccc(C(=O)NC)cc2)c2c1C(C(F)(F)F)CN(c1ccc(C(=O)N(C)C)cn1)C2 (single isomer, unassigned) [Example 467]
### Prompt Sort by pEC50, descending. # list labels per requested ordering
### Response Q, P, R
(Q: 9.00, P: 8.05, R: 6.50)

---

system: CCL17 secretion in peripheral human whole blood; test: Human Whole Blood (HWB) CCL17 TR-FRET Assay (IL-13 stimulated CCL17 secretion); assay type: cell-based; details: human whole blood, IL-13 stimulated, 48 hours
pIC50: −log10 of the molar value.
Attribute Measured: pIC50

A: CCC1Cc2c(c(C(=O)NCc3ccc(NC(=O)N(C)C)cc3)nn2C)CN1c1ccc(C(=O)N(C)C)cn1 (single isomer, unassigned) [Example 270]
B: CC1CN(c2ccc(-c3nccn3C)cn2)Cc2c(C(=O)NCc3ccc(NC(=O)N(C)C)cc3)nn(C)c21 (single isomer, unassigned) [Example 203]
C: CC(CO)n1nc(C(=O)NCc2ccc(NC(=O)N(C)C)cc2)c2c1CCN(c1ccc(C(=O)N(C)C)cn1)C2 (single isomer, unassigned) [Example 359]
### Prompt Let's sort these by pIC50, smallest first. Go ahead? # list labels per requested ordering
### Response C, A, B

---

molecular target: STAT6 (Homo sapiens, UniProt P42226); construct: stably transfected HaCaT keratinocyte cell line, which expresses NanoLuc luciferase reporter gene under the transcriptional control of the STAT6 responsive promoter; endogenous in cells; host or cells: HaCaT keratinocyte reporter cell line (stably transfected with a NanoLuc reporter); assay: STAT6 Reporter Luciferase Assay (IL-13 stimulated HaCaT keratinocyte NanoLuc reporter cells); assay type: cell-based; conditions: IL-13 stimulated HaCaT STAT6 NanoLuc reporter cells; read-out: Reporter EC50
pEC50: −log10 of the molar value.
Attribute Measured: pEC50

Reference set (2 entries):
| Compound | pEC50 |
| --- | --- |
| CN(C)C(=O)Nc1ccc(CNC(=O)c2nn(C)c3c2[C@H]2CCC[C@@H](C3)N2c2ccc(C(=O)N(C)C)cn2)cc1 (single isomer, unassigned) [Example 274] | 6.16 |
| CC(C)n1nc(C(=O)NCc2ccc(NC(=O)N3CCN(C)CC3)cc2)c2c1[C@@H](C)CN(c1ccc(-c3nccn3C(F)F)cn1)C2 [Example 654] | 8.70 |

a: CC(C)n1nc(C(=O)NCc2ccc(NC(=O)N3CC4(CCN(C)C4)C3)c(F)c2)c2c1[C@@H](C)CN(c1ccc(C(=O)N(C)C)cn1)C2 [Example 603]
b: CCC(=O)N1CCN(C(=O)c2ccc(N3CCc4c(c(C(=O)NCc5ccc(NC(=O)N(C)C)cc5)nn4C(C)C)C3)nc2)CC1 [Example 196]
c: CC1CN(c2ccc(C(=O)N(C)C)cn2)Cc2c1nn1c2C(=O)N(Cc2ccc(NC(=O)N(C)C)cc2)CC1 (single isomer, unassigned) [Example 281]
### Prompt Provide the items ranked by increasing pEC50. # list labels per requested ordering
### Response b, c, a
(b: 7.05, c: 7.77, a: 8.52)

---

target: STAT6 (Homo sapiens, UniProt P42226); construct: stably transfected HaCaT keratinocyte cell line, which expresses NanoLuc luciferase reporter gene under the transcriptional control of the STAT6 responsive promoter; endogenous in cells; host or cells: HaCaT keratinocyte reporter cell line (stably transfected with a NanoLuc reporter); assay: STAT6 Reporter Luciferase Assay (IL-13 stimulated HaCaT keratinocyte NanoLuc reporter cells); type: cell-based; details: STAT6 NanoLuc luciferase reporter, IL-13 stimulated HaCaT keratinocyte cells; read-out: Reporter EC50
Attribute Measured: EC50 (nM)

Reference set (3 entries):
| Compound | System Tested | Output Unit | EC50 |
| --- | --- | --- | --- |
| CN(C)C(=O)Nc1ccc(CNC(=O)c2cnn3c2CN(c2ccc(C(=O)N(C)C)cn2)CC3)cc1 | STAT6 (Homo sapiens, UniProt P42226) | nM | 2230 |
| CC(C)n1nc(C(=O)NCc2ccc(NC(=O)N(C)C)cc2)c2c1CCN(c1ccc(N3CCOCCC3=O)cn1)C2 | STAT6 (Homo sapiens, UniProt P42226) | nM | 174 |
| CCn1nc(C(=O)NCc2ccc(NC(=O)N(C)C)cc2)c2c1CCN(c1ccc(C(=O)N(C)C)cn1)C2 | STAT6 (Homo sapiens, UniProt P42226) | nM | 10 |

a: CCC1CN(c2ccc(C(=O)N(C)C)cn2)Cc2c(C(=O)NCc3ccc(NC(=O)N(C)C)cc3)nn(CC)c21 (racemic)
b: CC(C)n1nc(C(=O)NCc2ccc(NC(=O)N(C)C)cc2)c2c1CCN(c1ccc(NS(C)(=O)=O)cn1)C2
c: CN(C)C(=O)Nc1ccc(CNC(=O)c2nc(C3CC3)n3c2CN(c2ccc(C(=O)N(C)C)cn2)CC3)cc1
d: CC(C)n1nc(C(=O)NCc2ccc(NC(=O)N3CCCC(N(C)C)C3)cc2)c2c1CCN(c1ccc(C(=O)N(C)C)cn1)C2 (stereo not shown)
### Prompt Provide the items ranked by increasing EC50. # list labels per requested ordering
### Response a, d, c, b

---

Target: STAT6 (Homo sapiens, UniProt P42226)
Construct: stably transfected HaCaT keratinocyte cell line, which expresses NanoLuc luciferase reporter gene under the transcriptional control of the STAT6 responsive promoter; endogenous in cells; host or cells: HaCaT keratinocyte reporter cell line (stably transfected with a NanoLuc reporter)
Sequence (P42226 1-847): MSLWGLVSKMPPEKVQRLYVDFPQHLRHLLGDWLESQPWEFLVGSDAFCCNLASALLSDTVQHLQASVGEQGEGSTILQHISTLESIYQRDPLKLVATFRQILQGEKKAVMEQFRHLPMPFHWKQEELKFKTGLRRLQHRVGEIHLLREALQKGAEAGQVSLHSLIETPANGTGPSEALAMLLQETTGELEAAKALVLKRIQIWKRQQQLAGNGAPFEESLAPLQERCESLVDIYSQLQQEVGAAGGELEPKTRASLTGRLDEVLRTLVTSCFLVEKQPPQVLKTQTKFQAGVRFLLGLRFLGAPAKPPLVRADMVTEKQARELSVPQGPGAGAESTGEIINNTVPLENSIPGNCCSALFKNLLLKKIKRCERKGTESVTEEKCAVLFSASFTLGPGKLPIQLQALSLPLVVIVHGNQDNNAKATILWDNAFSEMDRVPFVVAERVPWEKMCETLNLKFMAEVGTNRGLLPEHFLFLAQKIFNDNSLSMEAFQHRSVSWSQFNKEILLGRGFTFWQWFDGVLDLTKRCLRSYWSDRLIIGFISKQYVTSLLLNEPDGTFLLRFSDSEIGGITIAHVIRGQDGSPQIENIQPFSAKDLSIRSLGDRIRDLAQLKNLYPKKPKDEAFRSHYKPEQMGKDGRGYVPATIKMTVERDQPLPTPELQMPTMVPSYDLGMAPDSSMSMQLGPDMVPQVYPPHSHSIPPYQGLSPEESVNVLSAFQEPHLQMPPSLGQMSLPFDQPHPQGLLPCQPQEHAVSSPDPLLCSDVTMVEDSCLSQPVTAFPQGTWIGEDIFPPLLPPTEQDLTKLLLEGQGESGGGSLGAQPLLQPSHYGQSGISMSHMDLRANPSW
Assay: STAT6 Reporter Luciferase Assay (IL-13 stimulated HaCaT keratinocyte NanoLuc reporter cells)
Type: cell-based
Details: IL-13 stimulated HaCaT STAT6 NanoLuc reporter cells; read-out: Reporter EC50
Text: Pharmacological measurements of STAT6 transcriptional activity through the IL-13-IL-13 receptor/IL-4 receptor pathway were made with a stably transfected HaCaT keratinocyte cell line, which expresses NanoLuc luciferase reporter gene under the transcriptional control of the STAT6 responsive promoter for IL-13Ra2. The readout of the STAT6 activity utilized Promega Nano-Glo Luciferase assay kit. […]
pEC50: −log10 of the molar value.
Attribute Measured: pEC50

| Compound | Val |
| --- | --- |
| COc1nc(N2CCc3c(c(C(=O)NCc4ccc(NC(=O)N(C)C)cc4)nn3C(C)C)C2)ccc1[C@]1(C)CNC(=O)C1 [Example 202] | 5.09 |

a: CNC1(C)CN(C(=O)Nc2ccc(CNC(=O)c3nn(C(C)C)c4c3CN(c3ccc(C(=O)N(C)C)cc3)C[C@@H]4C)cc2)C1 [Example 581]
b: CCC1CN(c2ccc(C(=O)N(C)C)cn2)Cc2c(C(=O)NCc3ccc(NC(=O)N(C)C)cc3)nn(C(C)C)c21 (single isomer, unassigned) [Example 310]
c: CC1CN(c2ncc(C(=O)N(C)C)cn2)Cc2c(C(=O)NCc3ccc(NC(=O)N(C)C)cc3)nn(C(C)C)c21 (racemic) [Example 532]
d: C[C@H]1CN(c2ncc(-c3nccn3C)cn2)Cc2c(C(=O)NCc3ccc(NC(=O)N(C)C)cc3)nn(C)c21 [Example 502]
### Prompt Sort by pEC50, descending. # list labels per requested ordering
### Response c, a, b, d

1: CC(C)n1nc(C(=O)NCc2ccc(-c3ncc[nH]3)cc2)c2c1C[C@H](C)N(c1ncc(C(=O)N(C)C)cn1)C2 [Example 451]
2: CNC(=O)c1ccc(CNC(=O)c2nn(C(C)C)c3c2CN(c2ncc(N4CCCC4=O)cn2)C[C@@H]3C)cc1 [Example 490]
3: CC(C)n1nc(C(=O)NCc2ccc(NC(=O)N3CCN(CCC(=O)O)CC3)c(F)c2)c2c1[C@@H](C)CN(c1ccc(C(=O)N(C)C)cc1)C2 [Example 669]
### Prompt Sort by pEC50, descending. # list labels per requested ordering
### Response 1, 2, 3
(1: 8.52, 2: 7.89, 3: 6.70)

I: CCn1nc(C(=O)NCc2ccc(NC(=O)N(C)C)cc2)c2c1[C@H](C)[C@@H](C)N(c1ccc(C(=O)N(C)C)cn1)C2 (single isomer, unassigned) [Example 353]
II: CC(C)n1nc(C(=O)NCc2ccc(NC(=O)N(C)C)cc2)c2c1[C@@H](C)CN(c1ccc(C(=O)N(C)CC3CCNCC3)cc1)C2 [Example 637]
### Prompt Min pEC50? I | II Lab note: record the label of whichever item you select.
### Response II
